# Test system: HL-60
# ASSAY COMMENT: NCI tumour cell line growth inhibition, 48 h
The source made the active and inactive calls. No stated cut-off is given here; in the data, active = GI50 up to about 1.1 µM and inactive = higher.
Valid outcomes are listed here; reply with one: Yes for active, No for inactive

Prompt: I would be grateful if you could indicate the recorded call for N/C(=N\O)N/N=C/c1cccs1 .
Response: No

Prompt: Please state the recorded outcome for this compound: COc1cc2c(cc1O)[C@]1(Cc3ccc4c(c3C1=O)OCO4)N(C)CC2
Response: No

Prompt: Given CCOC(=O)C(CC(C)C)NC(=O)C(N)Cc1ccc(N(CCCl)CCCl)cc1 (stereo unspecified) , state the outcome it received in this test.
Response: Yes

Prompt: Please let me know the test result on file for COc1cc2c(cc1C)NC(=O)/C2=C/c1c(Cl)n(C)c2ccccc12 .
Response: No

Prompt: Test call for this compound, please: CC1(C)Cc2cc(C(=O)O)c3c(c2C1=O)COCC3
Response: No

Prompt: What outcome does the record of this test show for Brc1ccc2[nH]cc(-c3nc(-c4c[nH]c5ccccc45)cs3)c2c1 ?
Response: No

Origin of the recorded values: ChEMBL document CHEMBL1201862
